method: in vivo
condition.summary: male, beagle, dog, po, 0.2 mg/kg, Mean systemic AUC0-inf
readout: AUC(0-inf) (ng·h/mL)
Number in ng·h/mL, nothing else.

Identify measured AUC(0-inf) associated with OC[C@H]1O[C@@H](n2cnc3c2NC=NC[C@H]3O)C[C@@H]1O
340

----------
method: Pharmacokinetics of decitabine in IVAP rabbit model
Format: in vivo, rabbits
condition.summary: rabbit, plasma, other: upper small intestine (USI) port, 2.5 mg/kg, USI 2.5 mg/kg; read-out: systemic Bioavailability, Mean
Experimental: Decitabine was administered intravenously to IVAP rabbits (n=3) at three doses: 0.75, 1.5 and 2.5 mg/kg. It was also administered at 2.5mg/kg orally and through previously implanted intestinal and vascular access ports in the portal vein (PV), upper small intestine (USI), lower small intestine (LSI) and colon (IC). […] Pharmacokinetic parameters were calculated using non-compartmental models with the Winnonlin v3.1 program.
readout: bioavailability (%)
Number in %, nothing else.

Identify measured bioavailability associated with Nc1ncn([C@H]2C[C@H](O)[C@@H](CO)O2)c(=O)n1
74

----------
method: Pharmacokinetics of decitabine in IVAP rabbit model
Assay type: in vivo, rabbits
condition.summary: rabbit, plasma (systemic), 2.5 mg/kg, USI 2.5 mg/kg; read-out: Individual systemic Bioavailability
Experimental: Decitabine was administered intravenously to IVAP rabbits (n=3) at three doses: 0.75, 1.5 and 2.5 mg/kg. It was also administered at 2.5mg/kg orally and through previously implanted intestinal and vascular access ports in the portal vein (PV), upper small intestine (USI), lower small intestine (LSI) and colon (IC). […] Pharmacokinetic parameters were calculated using non-compartmental models with the Winnonlin v3.1 program.
readout: bioavailability

Identify measured bioavailability associated with Nc1ncn([C@H]2C[C@H](O)[C@@H](CO)O2)c(=O)n1 [decitabine, 5-aza-2′-deoxycytidine]
64.8%

----------
method: Pharmacokinetics of decitabine in IVAP rabbit model
Assay type: in vivo, rabbits
condition.summary: IV 1.5 mg/kg, 2 min
readout: concentration SYS, Mean
Reply with the number and its unit after it.

Identify measured concentration SYS, Mean associated with Nc1ncn([C@H]2C[C@H](O)[C@@H](CO)O2)c(=O)n1
1080 ng/mL

----------
method: Pharmacokinetics of decitabine in IVAP rabbit model
Type: in vivo, rabbits
condition.summary: rabbit, plasma (systemic, median auricular artery), po, 2.5 mg/kg, Oral 2.5 mg/kg; read-out: Mean AUC0-inf in Systemic Samples
readout: AUC(0-inf) (ng·h/mL)
Number in ng·h/mL, nothing else.

Identify measured AUC(0-inf) associated with Nc1ncn([C@H]2C[C@H](O)[C@@H](CO)O2)c(=O)n1 [decitabine, 5-aza-2′-deoxycytidine]
402

----------
method: Pharmacokinetics of decitabine in IVAP rabbit model
Format: in vivo, rabbits
condition.summary: IV 0.75 mg/kg, 5 min
readout: concentration SYS, Mean (µg/mL)
Number in µg/mL, nothing else.

Identify measured concentration SYS, Mean associated with Nc1ncn([C@H]2C[C@H](O)[C@@H](CO)O2)c(=O)n1
0.422

----------
method: Pharmacokinetics of decitabine in IVAP rabbit model
Type: in vivo, rabbits
condition.summary: rabbit, plasma, other: portal vein (PV) port, 2.5 mg/kg, PV 2.5 mg/kg; read-out: systemic Bioavailability, Mean
readout: bioavailability (%)
Number in %, nothing else.

Identify measured bioavailability associated with Nc1ncn([C@H]2C[C@H](O)[C@@H](CO)O2)c(=O)n1
68
